biological target: Gap junction alpha-1 protein (Homo sapiens); assay: Inhibition of human Cx43 expressed in kanamycin-resistant Escherichia coli LB2003 cells in medium containing […] K+ and 10 uM IPTG by measuring cell growth at 15 uM after 18 hrs by growth complementation assay; set-up: scale not given: the % may be the effect or the level left
Please respond with met when measured Activity is strictly beneath 30%, and with not met in all other cases.

Challenge: Lab note: Activity threshold 30%. Does this compound come in strictly under it? COc1ccc(OC[C@H]2O[C@H](O[C@@H]3[C@@H](O)[C@H](O[C@H]4O[C@H](CN)[C@@H](O)[C@H](O)[C@H]4O)[C@@H](N)C[C@H]3N)[C@H](O)[C@@H](N)[C@@H]2O)cc1
Response given: met

Challenge: Report whether reported Activity is lower than 30% (strictly) for CCCCCCCCCC(=O)NC[C@H]1O[C@H](O[C@H]2[C@H](O)[C@@H](O[C@H]3O[C@H](CO)[C@@H](O)[C@H](N)[C@H]3O)[C@H](N)C[C@@H]2N)[C@H](O)[C@@H](O)[C@@H]1O
Response given: not met

Challenge: Regarding Cc1ccc(S(=O)(=O)OC[C@H]2O[C@H](O[C@@H]3[C@@H](O)[C@H](O[C@H]4O[C@H](CN)[C@@H](O)[C@H](O)[C@H]4O)[C@@H](N)C[C@H]3N)[C@H](O)[C@@H](N)[C@@H]2O)cc1 , kindly confirm whether its Activity is beneath 30%.
Response given: not met

Challenge: Please let me know if CCCCCCCC(=O)NC[C@H]1O[C@H](O[C@H]2[C@H](O)[C@@H](O[C@H]3O[C@H](CO)[C@@H](O)[C@H](N)[C@H]3O)[C@H](N)C[C@@H]2N)[C@H](O)[C@@H](O)[C@@H]1O shows Activity below 30%.
Response given: met

Challenge: Just wondering, is Activity of N[C@@H]1[C@@H](O)[C@@H](O[C@@H]2[C@@H](O)[C@H](O[C@H]3O[C@H](CNC(=O)c4ccc5cc(O)ccc5c4)[C@@H](O)[C@H](O)[C@H]3O)[C@@H](N)C[C@H]2N)O[C@H](CO)[C@H]1O below 30%?
Response given: not met

Challenge: API: query returns whether the compound falls strictly under 30% in Activity. Query: N[C@@H]1[C@@H](O)[C@@H](O[C@@H]2[C@@H](O)[C@H](O[C@H]3O[C@H](CNC(=O)c4ccccc4-c4c5ccc(=O)cc-5oc5cc(O)ccc45)[C@@H](O)[C@H](O)[C@H]3O)[C@@H](N)C[C@H]2N)O[C@H](CO)[C@H]1O
Response given: not met

* * *

Give Activity for every item shown.
molecular target: UniProt:P29033; assay: Inhibition of human Cx26 expressed in kanamycin-resistant Escherichia coli LB2003 cells in medium containing […] K+ and 500 uM IPTG by measuring cell growth at 50 uM after 18 hrs by growth complementation assay; parameters: scale not given: the % may be the effect or the level left
Return type: number; implicit unit %.

Challenge: Form field: reported Activity of Cc1ccc(S(=O)(=O)OC[C@H]2O[C@H](O[C@@H]3[C@@H](O)[C@H](O[C@H]4O[C@H](CN)[C@@H](O)[C@H](O)[C@H]4O)[C@@H](N)C[C@H]3N)[C@H](O)[C@@H](N)[C@@H]2O)cc1
Response given: 49.2

Challenge: Return reported Activity; argument: CCCCCCC(=O)NC[C@H]1O[C@H](O[C@H]2[C@H](O)[C@@H](O[C@H]3O[C@H](CO)[C@@H](O)[C@H](N)[C@H]3O)[C@H](N)C[C@@H]2N)[C@H](O)[C@@H](O)[C@@H]1O
Response given: 34.3

Challenge: Record request: Activity value, item N[C@@H]1[C@@H](O)[C@@H](O[C@@H]2[C@@H](O)[C@H](O[C@H]3O[C@H](CNC(=O)c4ccccc4-c4c5ccc(=O)cc-5oc5cc(O)ccc45)[C@@H](O)[C@H](O)[C@H]3O)[C@@H](N)C[C@H]2N)O[C@H](CO)[C@H]1O
Response given: 79.6

Challenge: What does the record list as Activity for N[C@@H]1[C@@H](O)[C@@H](O[C@@H]2[C@@H](O)[C@H](O[C@H]3O[C@H](CNC(=O)c4ccc5cc(O)ccc5c4)[C@@H](O)[C@H](O)[C@H]3O)[C@@H](N)C[C@H]2N)O[C@H](CO)[C@H]1O ?
Response given: 32.8

Challenge: Fill blank: measured Activity of the compound NC[C@H]1O[C@H](O[C@H]2[C@H](O)[C@@H](O[C@H]3O[C@H](COc4ccc(Cl)cc4)[C@@H](O)[C@H](N)[C@H]3O)[C@H](N)C[C@@H]2N)[C@H](O)[C@@H](O)[C@@H]1O is ____.
Response given: 69.5

* * *

experiment: Selectivity ratio of IC50 for inhibition of human Cx43 to IC50 for inhibition of human Cx26
I'd be grateful if you could share measured Selectivity ratio for these entries.

Challenge: Fill blank: measured Selectivity ratio of the compound NC[C@H]1O[C@H](O[C@H]2[C@H](O)[C@@H](O[C@H]3O[C@H](COc4ccc(-c5nc6ccccc6[nH]5)cc4)[C@@H](O)[C@H](N)[C@H]3O)[C@H](N)C[C@@H]2N)[C@H](O)[C@@H](O)[C@@H]1O is ____.
Response given: 0.34

Challenge: Reported Selectivity ratio, compound N[C@@H]1[C@@H](O)[C@@H](O[C@@H]2[C@@H](O)[C@H](O[C@H]3O[C@H](CNC(=O)c4ccccc4-c4c5ccc(=O)cc-5oc5cc(O)ccc45)[C@@H](O)[C@H](O)[C@H]3O)[C@@H](N)C[C@H]2N)O[C@H](CO)[C@H]1O : ____
Response given: 1.42

Challenge: Give its Selectivity ratio value. Item: NC[C@H]1O[C@H](O[C@H]2[C@H](O)[C@@H](O[C@H]3O[C@H](COCc4ccc5ccccc5c4)[C@@H](OCc4ccc5ccccc5c4)[C@H](N)[C@H]3O)[C@H](N)C[C@@H]2N)[C@H](O)[C@@H](O)[C@@H]1O
Response given: 1.07

Challenge: # input compound: NC[C@H]1O[C@H](O[C@H]2[C@H](O)[C@@H](O[C@H]3O[C@H](COCc4ccc(F)cc4)[C@@H](OCc4ccc(F)cc4)[C@H](N)[C@H]3O)[C@H](N)C[C@@H]2N)[C@H](O)[C@@H](O)[C@@H]1O ; wanted: its Selectivity ratio
Response given: 0.3

Challenge: Suppose we examine the compound NC[C@H]1O[C@H](O[C@H]2[C@H](O)[C@@H](O[C@H]3O[C@H](COCc4cccc(-c5ccccc5)c4)[C@@H](OCc4cccc(-c5ccccc5)c4)[C@H](N)[C@H]3O)[C@H](N)C[C@@H]2N)[C@H](O)[C@@H](O)[C@@H]1O ; what Selectivity ratio value has been reported?
Response given: 1.23

Challenge: Would you mind telling me what Selectivity ratio value was observed for Cc1ccc(COC[C@H]2O[C@H](O[C@@H]3[C@@H](O)[C@H](O[C@H]4O[C@H](CN)[C@@H](O)[C@H](O)[C@H]4O)[C@@H](N)C[C@H]3N)[C@H](O)[C@@H](N)[C@@H]2OCc2ccc(C)cc2)cc1 ?
Response given: 1.39

Challenge: Report Selectivity ratio for Cc1ccc(OC[C@H]2O[C@H](O[C@@H]3[C@@H](O)[C@H](O[C@H]4O[C@H](CN)[C@@H](O)[C@H](O)[C@H]4O)[C@@H](N)C[C@H]3N)[C@H](O)[C@@H](N)[C@@H]2O)cc1 please.
Response given: 7.97

* * *

Give Activity for every item shown.
target: Gap junction beta-2 protein (Homo sapiens); experiment: Inhibition of human Cx26 expressed in kanamycin-resistant Escherichia coli LB2003 cells in medium containing […] K+ and 500 uM IPTG by measuring cell growth at 15 uM after 18 hrs by growth complementation assay; parameters: scale not given: the % may be the effect or the level left
Give your result in % as a bare value.

Challenge: Consider the compound CCCCCCCC(=O)NC[C@H]1O[C@H](O[C@H]2[C@H](O)[C@@H](O[C@H]3O[C@H](CO)[C@@H](O)[C@H](N)[C@H]3O)[C@H](N)C[C@@H]2N)[C@H](O)[C@@H](O)[C@@H]1O and give its measured Activity.
Response given: 14

Challenge: Tell me the measured Activity of COc1ccc(OC[C@H]2O[C@H](O[C@@H]3[C@@H](O)[C@H](O[C@H]4O[C@H](CN)[C@@H](O)[C@H](O)[C@H]4O)[C@@H](N)C[C@H]3N)[C@H](O)[C@@H](N)[C@@H]2O)cc1 , please.
Response given: 15.9

Challenge: Consider the compound N[C@@H]1[C@@H](O)[C@@H](O[C@@H]2[C@@H](O)[C@H](O[C@H]3O[C@H](CNC(=O)c4cc(-c5ccccc5)nc5ccccc45)[C@@H](O)[C@H](O)[C@H]3O)[C@@H](N)C[C@H]2N)O[C@H](CO)[C@H]1O and give its measured Activity.
Response given: 8

Challenge: Activity for NC[C@H]1O[C@H](O[C@H]2[C@H](O)[C@@H](O[C@H]3O[C@H](COc4ccc(-c5ccccc5)cc4)[C@@H](O)[C@H](N)[C@H]3O)[C@H](N)C[C@@H]2N)[C@H](O)[C@@H](O)[C@@H]1O ?
Response given: 46.3
